Taken from the OligoGym collection.

Target Or Test System: UBE2I
Measurement Protocol: reporter assay of Huesken 2005
Condition Details: siRNA
Oligonucleotides are written 5' to 3', each unit as a sugar letter and its base; * is a phosphorothioate linkage, no mark a phosphodiester; rarer units and linkages stand in square brackets, end groups in braces. Plain capitals give the bases only. d = 2'-deoxy (DNA); r = 2'-OH (RNA)
# thresholds on normalised inhibition (eCFP-eYFP dual reporter) define classes: Low = under 50%, Mid = from 50% up to 80%, High = 80% and over

Hi, small favor: classify sense rCrCrCrGrArUrGrGrCrArCrGrArUrGrArArCrCdTdT / antisense rGrGrUrUrCrArUrCrGrUrGrCrCrArUrCrGrGrGdAdT by its normalised inhibition (eCFP-eYFP dual reporter) when you get a moment.
Mid

// repeat for sense rArUrGrUrArArArUrUrCrGrArArCrCrArCrCrAdTdT / antisense rUrGrGrUrGrGrUrUrCrGrArArUrUrUrArCrArUdTdT and report
Mid

// repeat for sense rArCrArGrUrGrUrGrCrCrUrGrUrCrCrArUrCrUdTdT / antisense rArGrArUrGrGrArCrArGrGrCrArCrArCrUrGrUdCdC and report
Mid

// repeat for sense rUrUrCrGrArArCrCrArCrCrArUrUrArUrUrUrCdTdT / antisense rGrArArArUrArArUrGrGrUrGrGrUrUrCrGrArAdTdT and report
Mid

// repeat for sense rGrGrArCrArArGrGrArCrUrGrGrArGrGrCrCrAdTdT / antisense rUrGrGrCrCrUrCrCrArGrUrCrCrUrUrGrUrCrCdTdC and report
High

---

Target Or Test System: UBE2N
Measurement Protocol: reporter assay of Huesken 2005
Condition Details: siRNA
Oligonucleotides are given in HELM: sugar(base)linkage, 5' to 3'; d 2'-deoxyribose, r ribose, m 2'-O-methylribose, p phosphate. ss, as = sense and antisense strand
Answer each item with its documented normalised inhibition (eCFP-eYFP dual reporter).

Examples from the recorded data:
RNA1{r(A)p.r(U)p.r(A)p.r(G)p.r(A)p.r(A)p.r(A)p.r(C)p.r(A)p.r(G)p.r(C)p.r(U)p.r(A)p.r(G)p.r(A)p.r(G)p.r(C)p.r(A)p.r(U)p.d(T)p.d(T)}|RNA2{r(A)p.r(U)p.r(G)p.r(C)p.r(U)p.r(C)p.r(U)p.r(A)p.r(G)p.r(C)p.r(U)p.r(G)p.r(U)p.r(U)p.r(U)p.r(C)p.r(U)p.r(A)p.r(U)p.d(G)p.d(G)}$$$RNA1{StrandType:ss}|RNA2{StrandType:as}$ : 91.8%
RNA1{r(G)p.r(A)p.r(A)p.r(C)p.r(U)p.r(A)p.r(U)p.r(U)p.r(C)p.r(C)p.r(U)p.r(U)p.r(C)p.r(C)p.r(A)p.r(G)p.r(A)p.r(A)p.r(G)p.d(T)p.d(T)}|RNA2{r(C)p.r(U)p.r(U)p.r(C)p.r(U)p.r(G)p.r(G)p.r(A)p.r(A)p.r(G)p.r(G)p.r(A)p.r(A)p.r(U)p.r(A)p.r(G)p.r(U)p.r(U)p.r(C)p.d(A)p.d(A)}$$$RNA1{StrandType:ss}|RNA2{StrandType:as}$ : 87.5%
RNA1{r(U)p.r(C)p.r(C)p.r(C)p.r(A)p.r(A)p.r(U)p.r(C)p.r(C)p.r(A)p.r(G)p.r(A)p.r(U)p.r(G)p.r(A)p.r(U)p.r(C)p.r(C)p.r(A)p.d(T)p.d(T)}|RNA2{r(U)p.r(G)p.r(G)p.r(A)p.r(U)p.r(C)p.r(A)p.r(U)p.r(C)p.r(U)p.r(G)p.r(G)p.r(A)p.r(U)p.r(U)p.r(G)p.r(G)p.r(G)p.r(A)p.d(G)p.d(C)}$$$RNA1{StrandType:ss}|RNA2{StrandType:as}$ : 78.4%
RNA1{r(A)p.r(C)p.r(U)p.r(U)p.r(G)p.r(A)p.r(A)p.r(C)p.r(U)p.r(A)p.r(U)p.r(U)p.r(C)p.r(C)p.r(U)p.r(U)p.r(C)p.r(C)p.r(A)p.d(T)p.d(T)}|RNA2{r(U)p.r(G)p.r(G)p.r(A)p.r(A)p.r(G)p.r(G)p.r(A)p.r(A)p.r(U)p.r(A)p.r(G)p.r(U)p.r(U)p.r(C)p.r(A)p.r(A)p.r(G)p.r(U)p.d(T)p.d(T)}$$$RNA1{StrandType:ss}|RNA2{StrandType:as}$ : 96.1%

Moving on to the next substance.
Looking for the measured normalised inhibition (eCFP-eYFP dual reporter) of RNA1{r(G)p.r(U)p.r(A)p.r(G)p.r(A)p.r(C)p.r(A)p.r(A)p.r(G)p.r(U)p.r(U)p.r(G)p.r(G)p.r(G)p.r(A)p.r(A)p.r(G)p.r(A)p.r(A)p.d(T)p.d(T)}|RNA2{r(U)p.r(U)p.r(C)p.r(U)p.r(U)p.r(C)p.r(C)p.r(C)p.r(A)p.r(A)p.r(C)p.r(U)p.r(U)p.r(G)p.r(U)p.r(C)p.r(U)p.r(A)p.r(C)p.d(A)p.d(T)}$$$RNA1{StrandType:ss}|RNA2{StrandType:as}$ , can you help?
94%
